target: EGFR (Homo sapiens, UniProt P00533); construct: EGFR cytoplasmic domain (EGFR-CD, amino acids 645–1186); His6 (N); made in house; host or cells: Sf-9 insect cells (baculovirus); assay: EGFR inhibitory assay; format: biochemical; conditions: EGFR, conc 1 (log 0), unit not given
Sequence (P00533 669-1210): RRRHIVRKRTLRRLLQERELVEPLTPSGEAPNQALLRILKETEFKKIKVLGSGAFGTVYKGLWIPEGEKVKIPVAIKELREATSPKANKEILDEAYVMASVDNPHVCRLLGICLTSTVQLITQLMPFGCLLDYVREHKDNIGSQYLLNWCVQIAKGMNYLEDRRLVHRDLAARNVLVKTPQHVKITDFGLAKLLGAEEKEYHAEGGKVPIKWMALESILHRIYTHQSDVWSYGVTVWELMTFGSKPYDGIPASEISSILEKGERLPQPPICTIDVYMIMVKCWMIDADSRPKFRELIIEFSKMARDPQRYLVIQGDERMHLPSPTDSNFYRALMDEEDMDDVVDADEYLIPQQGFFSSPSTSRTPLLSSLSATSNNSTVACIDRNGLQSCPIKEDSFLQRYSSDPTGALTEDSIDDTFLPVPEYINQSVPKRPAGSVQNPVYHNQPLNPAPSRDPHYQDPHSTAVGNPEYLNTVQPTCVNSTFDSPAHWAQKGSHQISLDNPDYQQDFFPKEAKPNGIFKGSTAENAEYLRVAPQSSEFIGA
MEASURED_PARAMETER: %inh (%)
Report the figure in % without appending any unit label.

Here's what some known entries look like.
{"SUBSTANCE_SMILES": "C/C(=N\\Nc1ccc(C(=O)O)cc1)c1cnn(-c2cc(=O)[nH]c3ccccc23)c1C", "%inh, %": 61.8}
{"SUBSTANCE_SMILES": "C/C(=N\\Nc1ccc(S(N)(=O)=O)cc1)c1cnn(-c2cc(=O)[nH]c3ccc(Br)cc23)c1C", "%inh, %": 75.8}
{"SUBSTANCE_SMILES": "C/C(=N\\Nc1ccc(S(N)(=O)=O)cc1)c1cnn(-c2cc(=O)[nH]c3ccc(Cl)cc23)c1C", "%inh, %": 72.7}

Kindly state the measured %inh obtained for `C/C(=N\Nc1ccc(C(=O)O)cc1)c1cnn(-c2cc(=O)[nH]c3ccc(C)cc23)c1C` with EGFR (Homo sapiens, UniProt P00533).
71.4

###

Test system: NCI 60 cancer cell lines
Assay: NCI anticancer screening over a panel of 60 cancer cells, single concentration 10 µM
Assay type: cell-based, human
Details: Homo sapiens, HCT-116, Colon cancer HCT-116, 10 μM; read-out: % Growth Inhibition (GI %)
Description: Ten final compounds 4a–j and five intermediates 2a–e have been selected by the National Cancer Institute (NCI) for anticancer screening over a panel of 60 cancer cells that cover a variety of histological tissues, including the central nervous system, leukemia, lung, colon, kidney, ovary, breast, and prostate, using the protocol established by the National Cancer Institute (NCI). In a primary screening, each compound was screened at a concentration of 10 µM. […]
Readings of inhibition at 10 µM for the listed molecules

{"MOLECULE": "C/C(=N\\Nc1ccc(S(N)(=O)=O)cc1)c1cnn(-c2cc(=O)[nH]c3ccc(Br)cc23)c1C [Compound 4e]", "inhibition at 10 µM": "41.5%"}
{"MOLECULE": "C/C(=N\\Nc1ccc(S(N)(=O)=O)cc1)c1cnn(-c2cc(=O)[nH]c3ccc(Cl)cc23)c1C [Compound 4d]", "inhibition at 10 µM": "19.1%"}
{"MOLECULE": "COc1ccc2[nH]c(=O)cc(-n3ncc(/C(C)=N/Nc4ccc(S(N)(=O)=O)cc4)c3C)c2c1 [Compound 4c]", "inhibition at 10 µM": "< 5%"}
{"MOLECULE": "C/C(=N\\Nc1ccc(S(N)(=O)=O)cc1)c1cnn(-c2cc(=O)[nH]c3ccccc23)c1C [Compound 4a]", "inhibition at 10 µM": "< 5%"}
{"MOLECULE": "COc1ccc2[nH]c(=O)cc(-n3ncc(/C(C)=N/Nc4ccc(C(=O)O)cc4)c3C)c2c1 [Compound 4h]", "inhibition at 10 µM": "< 5%"}
{"MOLECULE": "C/C(=N\\Nc1ccc(S(N)(=O)=O)cc1)c1cnn(-c2cc(=O)[nH]c3ccc(C)cc23)c1C [Compound 4b]", "inhibition at 10 µM": "< 5%"}

Kindly state the measured inhibition at 10 µM obtained for C/C(=N\Nc1ccc(C(=O)O)cc1)c1cnn(-c2cc(=O)[nH]c3ccc(Br)cc23)c1C [Compound 4j] with NCI 60 cancer cell lines.
< 5%

Quick one: C/C(=N\Nc1ccc(C(=O)O)cc1)c1cnn(-c2cc(=O)[nH]c3ccc(Cl)cc23)c1C [Compound 4i]
< 5%

Quick one: C/C(=N\Nc1ccc(C(=O)O)cc1)c1cnn(-c2cc(=O)[nH]c3ccccc23)c1C [Compound 4f]
< 5%
